Reference source: patent US20110064694A1

- procedureText: Cytotoxicity in uninfected MT-2 cells
- Format: cell-based
- conditionSummary: human; uninfected MT-2 cells, 5 days
measure: CC50 at 5 days

Challenge: GET /values?readout=CC50 at 5 days&item= O=C(O)c1ccc(-c2c3nc(c(-c4ccc(C(=O)O)cc4)c4ccc([nH]4)c(-c4ccc(C(=O)O)cc4)c4nc(c(-c5ccc(C(=O)O)cc5)c5ccc2[nH]5)C=C4)C=C3)cc1
Response given: > 25 µM

====

- procedureText: Cytotoxicity in Huh-7 cells (methylene blue or CellTiter-Glo)
- Format: cell-based
- conditionSummary: human; Huh-7 cells, 3 days
measure: CC50 at 3 days

Challenge: So what does the record say about CC50 at 3 days for O=C(O)c1ccc(-c2c3nc(c(-c4ccc(C(=O)O)cc4)c4ccc([nH]4)c(-c4ccc(C(=O)O)cc4)c4nc(c(-c5ccc(C(=O)O)cc5)c5ccc2[nH]5)C=C4)C=C3)cc1 ?
Response given: > 50 µM

====

- Test system: MT-2 cells
- procedureText: Cytotoxicity in uninfected MT-2 cells
- Format: cell-based
- conditionSummary: uninfected MT-2 cells, 5 days; read-out: Cytotoxicity CC50 MT-2
measure: CC50 (µM)
Entry rule: numbers only, all in µM.

smi	CC50, µM
O=C(O)CNC(=O)c1ccc(-c2c3nc(c(-c4ccc(C(=O)NCC(=O)O)cc4)c4ccc([nH]4)c(-c4ccc(C(=O)NCC(=O)O)cc4)c4nc(c(-c5ccc(C(=O)NCC(=O)O)cc5)c5ccc2[nH]5)C=C4)C=C3)cc1	3.2

Challenge: Tell me the measured CC50 of O=C(O)c1cc(C(=O)O)cc(-c2ccc(-c3c4nc(c(-c5ccc(-c6cc(C(=O)O)cc(C(=O)O)c6)cc5)c5ccc([nH]5)c(-c5ccc(-c6cc(C(=O)O)cc(C(=O)O)c6)cc5)c5nc(c(-c6ccc(-c7cc(C(=O)O)cc(C(=O)O)c7)cc6)c6ccc3[nH]6)C=C5)C=C4)cc2)c1 , please.
Response given: 18

====

- System: Huh-7 cells
- procedureText: Cytotoxicity in Huh-7 cells (methylene blue or CellTiter-Glo)
- Type: cell-based
- conditionSummary: Huh-7 cells, 3 days; read-out: Cytotoxicity CC50 Huh-7
measure: CC50

Challenge: // query CC50 value for entry O=C(O)c1cc(C(=O)O)cc(-c2ccc(-c3c4nc(c(-c5ccc(-c6cc(C(=O)O)cc(C(=O)O)c6)cc5)c5ccc([nH]5)c(-c5ccc(-c6cc(C(=O)O)cc(C(=O)O)c6)cc5)c5nc(c(-c6ccc(-c7cc(C(=O)O)cc(C(=O)O)c7)cc6)c6ccc3[nH]6)C=C5)C=C4)cc2)c1 [Compound 6]
Response given: > 50 µM

Challenge: Try the molecule O=C(O)CNC(=O)c1ccc(-c2c3nc(c(-c4ccc(C(=O)NCC(=O)O)cc4)c4ccc([nH]4)c(-c4ccc(C(=O)NCC(=O)O)cc4)c4nc(c(-c5ccc(C(=O)NCC(=O)O)cc5)c5ccc2[nH]5)C=C4)C=C3)cc1 [Compound 2]
Response given: > 50 µM

====

- procedureText: Cytotoxicity in CEM cells
- conditionSummary: human
measure: CC50 (µM)
# value in µM; strip the unit string

Challenge: Look at this molecule and give its reported CC50. O=C(O)c1ccc(-c2c3nc(c(-c4ccc(C(=O)O)cc4)c4ccc([nH]4)c(-c4ccc(C(=O)O)cc4)c4nc(c(-c5ccc(C(=O)O)cc5)c5ccc2[nH]5)C=C4)C=C3)cc1
Response given: 34

====

Reported EC50 is given for each of the following compounds.
- System: HIV-1 IIIB
- procedureText: Anti-HIV activity in MT-2 cells, MTT quantitation of viral CPE
- Format: cell-based
- conditionSummary: MT-2 cells, 5 days; read-out: Antiviral Activity EC50 HIV-1 IIIB
Report the value in µM with no unit label.

Challenge: Look at this compound and give its reported EC50. O=C(O)c1cc(C(=O)O)cc(-c2ccc(-c3c4nc(c(-c5ccc(-c6cc(C(=O)O)cc(C(=O)O)c6)cc5)c5ccc([nH]5)c(-c5ccc(-c6cc(C(=O)O)cc(C(=O)O)c6)cc5)c5nc(c(-c6ccc(-c7cc(C(=O)O)cc(C(=O)O)c7)cc6)c6ccc3[nH]6)C=C5)C=C4)cc2)c1
Response given: 3.67

Challenge: Same thing, different compound: O=C(O)CNC(=O)c1ccc(-c2ccc(-c3c4nc(c(-c5ccc(-c6ccc(C(=O)NCC(=O)O)cc6)cc5)c5ccc([nH]5)c(-c5ccc(-c6ccc(C(=O)NCC(=O)O)cc6)cc5)c5nc(c(-c6ccc(-c7ccc(C(=O)NCC(=O)O)cc7)cc6)c6ccc3[nH]6)C=C5)C=C4)cc2)cc1
Response given: 1.5

====

- System: CEM cells
measure: CC50 (µM)
Only the number, expressed in µM, is required.

smi	measValue
O=C(O)c1ccc(-c2ccc(-c3c4nc(c(-c5ccc(-c6ccc(C(=O)O)cc6)cc5)c5ccc([nH]5)c(-c5ccc(-c6ccc(C(=O)O)cc6)cc5)c5nc(c(-c6ccc(-c7ccc(C(=O)O)cc7)cc6)c6ccc3[nH]6)C=C5)C=C4)cc2)cc1	10

With those in mind, consider the next compound.
Challenge: Checklist item: CC50 tested on CEM cells, entry O=C(O)c1cccc(-c2ccc(-c3c4nc(c(-c5ccc(-c6cccc(C(=O)O)c6)cc5)c5ccc([nH]5)c(-c5ccc(-c6cccc(C(=O)O)c6)cc5)c5nc(c(-c6ccc(-c7cccc(C(=O)O)c7)cc6)c6ccc3[nH]6)C=C5)C=C4)cc2)c1 , value?
Response given: 50

====

- Tested on: Huh-7 cells
- procedureText: Cytotoxicity in Huh-7 cells (methylene blue or CellTiter-Glo)
- Assay type: cell-based
measure: CC50 (µM)
Write the number in µM without appending the unit.

Guide cases for CC50, answers given:
smi	measure	measValue
O=C(O)c1ccc(-c2ccc(-c3c4nc(c(-c5ccc(-c6ccc(C(=O)O)cc6)cc5)c5ccc([nH]5)c(-c5ccc(-c6ccc(C(=O)O)cc6)cc5)c5nc(c(-c6ccc(-c7ccc(C(=O)O)cc7)cc6)c6ccc3[nH]6)C=C5)C=C4)cc2)cc1	CC50	32.2
O=C(O)c1cccc(-c2ccc(-c3c4nc(c(-c5ccc(-c6cccc(C(=O)O)c6)cc5)c5ccc([nH]5)c(-c5ccc(-c6cccc(C(=O)O)c6)cc5)c5nc(c(-c6ccc(-c7cccc(C(=O)O)c7)cc6)c6ccc3[nH]6)C=C5)C=C4)cc2)c1	CC50	13

Now, please, on to the next compound.
Challenge: So what's the measured CC50 for this one? O=C(O)CNC(=O)c1cc(C(=O)NCC(=O)O)cc(-c2ccc(-c3c4nc(c(-c5ccc(-c6cc(C(=O)NCC(=O)O)cc(C(=O)NCC(=O)O)c6)cc5)c5ccc([nH]5)c(-c5ccc(-c6cc(C(=O)NCC(=O)O)cc(C(=O)NCC(=O)O)c6)cc5)c5nc(c(-c6ccc(-c7cc(C(=O)NCC(=O)O)cc(C(=O)NCC(=O)O)c7)cc6)c6ccc3[nH]6)C=C5)C=C4)cc2)c1
Response given: 12.5

====

CEM cells: reported CC50 for various molecules.

molecule	measValue
O=C(O)c1cc(C(=O)O)cc(-c2c3nc(c(-c4cc(C(=O)O)cc(C(=O)O)c4)c4ccc([nH]4)c(-c4cc(C(=O)O)cc(C(=O)O)c4)c4nc(c(-c5cc(C(=O)O)cc(C(=O)O)c5)c5ccc2[nH]5)C=C4)C=C3)c1 [Compound 3]	> 50 µM

Challenge: Bench note: what CC50 did O=C(O)CNC(=O)c1ccc(-c2ccc(-c3c4nc(c(-c5ccc(-c6ccc(C(=O)NCC(=O)O)cc6)cc5)c5ccc([nH]5)c(-c5ccc(-c6ccc(C(=O)NCC(=O)O)cc6)cc5)c5nc(c(-c6ccc(-c7ccc(C(=O)NCC(=O)O)cc7)cc6)c6ccc3[nH]6)C=C5)C=C4)cc2)cc1 [Compound 5] show?
Response given: > 50 µM

====

- System: MT-2 cells
- procedureText: Cytotoxicity in uninfected MT-2 cells
- Type: cell-based
measure: CC50 (µM)
Supply the numeric figure in µM, leaving out any unit text.

smi	measurementTarget	CC50 / µM
O=C(O)c1cc(C(=O)O)cc(-c2c3nc(c(-c4cc(C(=O)O)cc(C(=O)O)c4)c4ccc([nH]4)c(-c4cc(C(=O)O)cc(C(=O)O)c4)c4nc(c(-c5cc(C(=O)O)cc(C(=O)O)c5)c5ccc2[nH]5)C=C4)C=C3)c1	MT-2 cells	22
O=C(O)CNC(=O)c1ccc(-c2ccc(-c3c4nc(c(-c5ccc(-c6ccc(C(=O)NCC(=O)O)cc6)cc5)c5ccc([nH]5)c(-c5ccc(-c6ccc(C(=O)NCC(=O)O)cc6)cc5)c5nc(c(-c6ccc(-c7ccc(C(=O)NCC(=O)O)cc7)cc6)c6ccc3[nH]6)C=C5)C=C4)cc2)cc1	MT-2 cells	13

Challenge: Look at this compound and give its reported CC50. O=C(O)CNC(=O)c1cc(C(=O)NCC(=O)O)cc(-c2ccc(-c3c4nc(c(-c5ccc(-c6cc(C(=O)NCC(=O)O)cc(C(=O)NCC(=O)O)c6)cc5)c5ccc([nH]5)c(-c5ccc(-c6cc(C(=O)NCC(=O)O)cc(C(=O)NCC(=O)O)c6)cc5)c5nc(c(-c6ccc(-c7cc(C(=O)NCC(=O)O)cc(C(=O)NCC(=O)O)c7)cc6)c6ccc3[nH]6)C=C5)C=C4)cc2)c1
Response given: 15
